ASSAY_METHOD_TEXT: Cytotoxicity against KB cells was determined by crystal violet staining and spectrophotometric quantitation of dye eluted from stained cells
Format: functional, cell-based
EXPERIMENTAL_SETUP: Homo sapiens
The threshold is 40 µM. Values of IC50 beneath it are tagged y; values meeting or exceeding it are tagged n.

Strictly below 40 µM: is that where IC50 of OC[C@H]1O[C@@H](n2c(Br)nc3cc(Cl)c(Cl)cc32)C(O)[C@@H]1O (single isomer, unassigned) sits?
n

Strictly below 40 µM: is that where IC50 of COC(=N)c1c(Cl)n(C2O[C@H](CO)[C@@H](O)C2O)c2cc(Cl)c(Cl)cc12 (single isomer, unassigned) sits?
n

Strictly below 40 µM: is that where IC50 of N/C(S)=N/N=C/c1c(Cl)n(C2O[C@H](CO)[C@@H](O)[C@H]2O)c2cc(Cl)c(Cl)cc12 (some centres not stated) sits?
n

Strictly below 40 µM: is that where IC50 of N/C(=N\O)c1c(Cl)n(C2O[C@H](CO)[C@@H](O)C2O)c2cc(Cl)c(Cl)cc12 (single isomer, unassigned) sits?
n

Strictly below 40 µM: is that where IC50 of OC[C@H]1OC(n2c(Cl)c(/C=N/O)c3cc(Cl)c(Cl)cc32)C(O)[C@@H]1O (single isomer, unassigned) sits?
y

Strictly below 40 µM: is that where IC50 of NC(=O)c1c(Cl)n(C2O[C@H](CO)[C@@H](O)C2O)c2cc(Cl)c(Cl)cc12 (single isomer, unassigned) sits?
n

Strictly below 40 µM: is that where IC50 of CC(=O)N/N=C/c1c(Cl)n(C2O[C@H](CO)[C@@H](O)C2O)c2cc(Cl)c(Cl)cc12 (single isomer, unassigned) sits?
y

Strictly below 40 µM: is that where IC50 of COC(=O)N/N=C/c1c(Cl)n(C2O[C@H](CO)[C@@H](O)[C@H]2O)c2cc(Cl)c(Cl)cc12 (some centres not stated) sits?
y

Strictly below 40 µM: is that where IC50 of N#Cc1c(Cl)n(C2O[C@H](CO)[C@@H](O)C2O)c2cc(Cl)c(Cl)cc12 (single isomer, unassigned) sits?
n

Strictly below 40 µM: is that where IC50 of Nc1nc2c(ncn2COC(CO)CO)c(=O)[nH]1 [GANCICLOVIR] sits?
n

Strictly below 40 µM: is that where IC50 of O=Cc1c(Cl)n(C2O[C@H](CO)[C@@H](O)C2O)c2cc(Cl)c(Cl)cc12 (single isomer, unassigned) sits?
n

Strictly below 40 µM: is that where IC50 of N/C(=N\O)c1c(Br)n(C2O[C@H](CO)[C@@H](O)C2O)c2cc(Cl)c(Cl)cc12 (single isomer, unassigned) sits?
y

---

ASSAY_METHOD_TEXT: Inhibitory concentration required against herpes simplex virus type-1 (HSV-1) expressed in BSC-1 cells was determined by ELISA assay
Format: functional, cell-based, Cercopithecidae
METRIC: pIC50
Here pIC50 is given on a logarithmic scale as minus log10 of the concentration in mol/L.

Supply measured pIC50 of OC[C@H]1O[C@@H](n2c(Cl)nc3cc(Cl)c(Cl)cc32)C(O)[C@@H]1O (single isomer, unassigned) in your reply.
3.99

Supply measured pIC50 of N#Cc1c(Cl)n(C2O[C@H](CO)[C@@H](O)C2O)c2cc(Cl)c(Cl)cc12 (single isomer, unassigned) in your reply.
4.82

Supply measured pIC50 of CO/N=C/c1c(Cl)n(C2O[C@H](CO)[C@@H](O)C2O)c2cc(Cl)c(Cl)cc12 (single isomer, unassigned) in your reply.
4.82

Supply measured pIC50 of COC(=N)c1c(Cl)n(C2O[C@H](CO)[C@@H](O)C2O)c2cc(Cl)c(Cl)cc12 (single isomer, unassigned) in your reply.
4.15

Supply measured pIC50 of COC(=O)N/N=C/c1c(Cl)n(C2O[C@H](CO)[C@@H](O)[C@H]2O)c2cc(Cl)c(Cl)cc12 (stereo partly drawn) in your reply.
4.52

Supply measured pIC50 of Nc1nc2c(ncn2COC(CO)CO)c(=O)[nH]1 in your reply.
5.46

Supply measured pIC50 of N/C(=N\O)c1c(Cl)n(C2O[C@H](CO)[C@@H](O)C2O)c2cc(Cl)c(Cl)cc12 (single isomer, unassigned) in your reply.
4.15
